Target: UniProt:Q9QUK6
Sequence (Q9QUK6 whole entry): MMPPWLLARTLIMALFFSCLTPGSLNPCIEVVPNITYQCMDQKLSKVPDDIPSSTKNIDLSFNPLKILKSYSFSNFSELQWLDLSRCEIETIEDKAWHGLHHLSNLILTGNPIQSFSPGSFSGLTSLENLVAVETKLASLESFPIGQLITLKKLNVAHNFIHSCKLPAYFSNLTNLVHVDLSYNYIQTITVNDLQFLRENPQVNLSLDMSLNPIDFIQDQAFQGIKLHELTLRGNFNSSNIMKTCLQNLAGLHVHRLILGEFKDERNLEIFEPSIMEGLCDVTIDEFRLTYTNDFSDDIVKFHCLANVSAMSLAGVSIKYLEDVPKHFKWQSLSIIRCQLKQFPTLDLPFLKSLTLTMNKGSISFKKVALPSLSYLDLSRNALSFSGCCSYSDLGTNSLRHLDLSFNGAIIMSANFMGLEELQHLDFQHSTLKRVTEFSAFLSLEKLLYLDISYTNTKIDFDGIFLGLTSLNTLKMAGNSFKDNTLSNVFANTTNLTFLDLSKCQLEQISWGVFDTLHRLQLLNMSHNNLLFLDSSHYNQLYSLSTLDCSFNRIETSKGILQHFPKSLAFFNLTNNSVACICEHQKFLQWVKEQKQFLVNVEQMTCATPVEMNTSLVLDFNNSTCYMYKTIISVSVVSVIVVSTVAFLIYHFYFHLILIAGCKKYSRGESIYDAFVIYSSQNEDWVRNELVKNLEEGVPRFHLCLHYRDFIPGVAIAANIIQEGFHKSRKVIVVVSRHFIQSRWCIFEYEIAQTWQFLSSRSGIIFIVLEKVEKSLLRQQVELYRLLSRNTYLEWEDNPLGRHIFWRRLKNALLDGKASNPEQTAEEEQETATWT
Experiment: Agonist activity at TLR4 in C57BL/6 mouse BMDC assessed as induction of IL-6 release at 0.1 to 10 uM after 18 hrs by ELISA
Activity calls are given as the source filed them. The rule behind the calls is not given here.
test_readout: Activity

>>> assay_value("Cn1c2ccc(-c3ccccc3)cc2c2nc(SCC(=O)NC3CCCCC3)n(-c3ccccc3)c(=O)c21")
"Active"
>>> assay_value("Cn1c2c(c3nc(SCC(=O)NC4CCCCC4)n(-c4ccccc4)c(=O)c31)CCCCC2")
"Active"
>>> assay_value("Cn1c2ccccc2c2nc(SCC(=O)NC3CCCCC3)n(-c3ccccc3)c(=O)c21")
"Active"
>>> assay_value("Cn1c2ccc(-c3ccc4ccccc4c3)cc2c2nc(SCC(=O)NC3CCCCC3)n(-c3ccccc3)c(=O)c21")
"Active"

Data provenance: ChEMBL document CHEMBL4028879
